pKi: −log10 of the molar value.
For reference, pKi measured on D(3) dopamine receptor (Rattus norvegicus):
property label: pKi

Cn1c(SCCCN2CCOC(c3ccc(C(F)(F)F)cc3)C2)nnc1-c1cnccn1 (racemic) :: 6.80
Cc1ncoc1-c1nnc(SCCCN2CCOC(c3ccc(C(F)(F)F)cc3)C2)n1C (racemic) :: 6.90

[1] Cn1c(SCCCN2CCOC(c3ccc(C(F)(F)F)cc3)C2)nnc1-c1ccncc1 (racemic)
[2] Cn1c(SCCCN2CCOC(c3ccc(C(F)(F)F)cc3F)C2)nnc1-c1ccc(C(N)=O)cc1 (racemic)
Please indicate which has the smaller reported pKi: 1 , or 2 . Respond with the label that goes with your answer.
1
(1: 7.00, 2: 7.20)

====

target: D(3) dopamine receptor (Homo sapiens); test: Antagonist activity at human dopamine D3 receptor expressed in CHO cells after 90 mins by [35S]-GTPgamma S assay; assay type: cell-based
Sequence (P35462 whole entry): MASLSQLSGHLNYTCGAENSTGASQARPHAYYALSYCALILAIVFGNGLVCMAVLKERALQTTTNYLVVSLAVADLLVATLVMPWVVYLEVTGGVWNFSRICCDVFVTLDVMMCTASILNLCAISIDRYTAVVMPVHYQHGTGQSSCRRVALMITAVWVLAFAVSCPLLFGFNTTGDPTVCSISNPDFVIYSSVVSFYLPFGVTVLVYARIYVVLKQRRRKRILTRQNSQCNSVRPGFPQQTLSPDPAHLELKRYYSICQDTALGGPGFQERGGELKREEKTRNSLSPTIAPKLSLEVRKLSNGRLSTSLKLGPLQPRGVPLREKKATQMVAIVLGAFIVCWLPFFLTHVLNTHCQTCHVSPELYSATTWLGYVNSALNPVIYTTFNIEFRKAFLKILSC
pKi: −log10 of the molar value.
property label: pKi

Cn1c(SCCCN2CCOC(c3ccc(C(F)(F)F)cc3)C2)nnc1C1CCCCC1 (racemic) :: 7.70
Cn1c(SCCCN2CCOC(c3ccc(C(F)(F)F)cc3)C2)nnc1-c1ccc(C(N)=O)cc1 (racemic) :: 7.70
CC(=O)c1ccc(-c2nnc(SCCCN3CCOC(c4ccc(C(F)(F)F)cc4)C3)n2C)cc1 (racemic) :: 7.70
